Conc μM @ Max Flux for assorted compounds
System name: Kv7.2/7.3 (KCNQ2/3) (Homo sapiens, UniProt O43525+O43526)
Construct: expressed in transfected cells; host or cells: CHO
Protocol notes: CHO-Kv7.2/7.3 (KCNQ2/3) 86Rb efflux assay
Assay type: cell-based
Cond: concentration at which maximal 86Rb flux was seen
Description: Compounds were tested at concentrations from 0.001 μM to 30 μM to generate 10-point concentration-response curve (CRC) (n=2). Retigabine and ML213 were included as control activators of Kv7.2/7.3 (KCNQ2/3). Data was normalized to ^86Rb flux elicited by application of extracellular buffer containing 70 mM KCl. Data were fit with “maximum activation” set at 100% of 70 mM KCl control stimulus.

Compound: CCCOc1nn(CCC)cc1C(=O)Nc1ccc(F)c(Cl)c1
Conc μM @ Max Flux / µM: 3

Compound: CCCOc1nn(CCC)cc1C(=O)Nc1ccccc1
Conc μM @ Max Flux / µM: 0.001

Compound: CCCOc1nn(CCC)cc1C(=O)Nc1cc(F)ccc1F
Conc μM @ Max Flux / µM: 10

Compound: Cc1cc(C)c(NC(=O)C2CC3CCC2C3)c(C)c1 (stereo not drawn) [ML213, reference compound]
Conc μM @ Max Flux / µM: 0.3

Compound: CCCOc1nn(CCC)cc1C(=O)Nc1ccc(F)cc1F
Conc μM @ Max Flux / µM: 10

Compound: CCCOc1nn(CCC)cc1C(=O)Nc1ccc(C(F)(F)F)c(F)c1
Conc μM @ Max Flux / µM: 0.01

Compound: CCCOc1nn(CCC)cc1C(=O)Nc1ccc(C#N)cc1
Conc μM @ Max Flux / µM: 3

Compound: CCCOc1nn(CCC)cc1C(=O)Nc1ccc(C(F)(F)F)c(C)c1
Conc μM @ Max Flux / µM: 10

Compound: CCCOc1nn(CCC)cc1C(=O)Nc1ccc(C(F)(F)F)c(Cl)c1
Conc μM @ Max Flux / µM: 3

---

System name: Kv7.2/7.3 (KCNQ2/3) (Homo sapiens, UniProt O43525+O43526)
Construct: expressed in transfected cells; host or cells: CHO
Protocol notes: CHO-Kv7.2/7.3 (KCNQ2/3) 86Rb efflux assay
Format: cell-based
Cond: Table 7, first line of values; read-out: EC50 (μM, raw)
Procedure: Compounds were tested at concentrations from 0.001 μM to 30 μM to generate 10-point concentration-response curve (CRC) (n=2). Retigabine and ML213 were included as control activators of Kv7.2/7.3 (KCNQ2/3). Data was normalized to ^86Rb flux elicited by application of extracellular buffer containing 70 mM KCl. Data were fit with “maximum activation” set at 100% of 70 mM KCl control stimulus.
Assay metric: EC50

Compound string: CCCOc1nn(CCC)cc1C(=O)Nc1ccc(C#N)cc1
Value reported: 0.0054 µM
//
Compound string: CCCOc1nn(CCC)cc1C(=O)Nc1ccc(C(F)(F)F)c(Cl)c1
Value reported: 1.54 µM
//
Compound string: CCCOc1nn(CCC)cc1C(=O)Nc1ccc(C(F)(F)F)c(C)c1
Value reported: 9.5 µM
//
Compound string: CCCOc1nn(CCC)cc1C(=O)Nc1ccc(C(F)(F)F)c(F)c1
Value reported: > 30 µM
//
Compound string: CCCOc1nn(CCC)cc1C(=O)Nc1ccc(F)cc1F
Value reported: 0.54 µM

---

Fitted Max % for assorted compounds
System name: Kv7.2/7.3 (KCNQ2/3) (Homo sapiens, UniProt O43525+O43526)
Construct: expressed in transfected cells; host or cells: CHO
Protocol notes: CHO-Kv7.2/7.3 (KCNQ2/3) 86Rb efflux assay
Assay type: cell-based
Cond: fit; maximum activation set at 100% of 70 mM KCl control stimulus
Assay metric: Fitted Max %

Compound: Cc1cc(C)c(NC(=O)C2CC3CCC2C3)c(C)c1 (stereo not shown) [ML213, reference compound]
Assay metric: Fitted Max %
Value reported: 98%
//
Compound: CCCOc1nn(CCC)cc1C(=O)Nc1ccc(C(F)(F)F)c(C)c1
Assay metric: Fitted Max %
Value reported: 100%
//
Compound: CCCOc1nn(CCC)cc1C(=O)Nc1ccc(F)c(Cl)c1
Assay metric: Fitted Max %
Value reported: 100%
//
Compound: CCCOc1nn(CCC)cc1C(=O)Nc1ccc(C(F)(F)F)c(Cl)c1
Assay metric: Fitted Max %
Value reported: 100%

---

System name: Kv7.2/7.3 (KCNQ2/3) (Homo sapiens, UniProt O43525+O43526)
Construct: expressed in transfected cells; host or cells: CHO
Protocol notes: CHO-Kv7.2/7.3 (KCNQ2/3) 86Rb efflux assay
Type: cell-based
Cond: 86Rb flux normalized to 70 mM KCl control; read-out: Max Flux %
Hi! Just check whether Emax is below 30%. Below gives fulfilled, equal or above gives not fulfilled.

Compound: CCCOc1nn(CCC)cc1C(=O)Nc1ccc(C#N)cc1
System name: Kv7.2/7.3 (KCNQ2/3) (Homo sapiens, UniProt O43525+O43526)
Label class: fulfilled
--
Compound: CCCOc1nn(CCC)cc1C(=O)Nc1cc(F)ccc1F
System name: Kv7.2/7.3 (KCNQ2/3) (Homo sapiens, UniProt O43525+O43526)
Label class: not fulfilled
--
Compound: CCCOc1nn(CCC)cc1C(=O)Nc1ccc(C(F)(F)F)c(F)c1
System name: Kv7.2/7.3 (KCNQ2/3) (Homo sapiens, UniProt O43525+O43526)
Label class: fulfilled
--
Compound: CCOC(=O)Nc1ccc(NCc2ccc(F)cc2)cc1N [Retigabine, reference compound]
System name: Kv7.2/7.3 (KCNQ2/3) (Homo sapiens, UniProt O43525+O43526)
Label class: not fulfilled
--
Compound: CCCOc1nn(CCC)cc1C(=O)Nc1ccccc1
System name: Kv7.2/7.3 (KCNQ2/3) (Homo sapiens, UniProt O43525+O43526)
Label class: fulfilled
--
Compound: CCCOc1nn(CCC)cc1C(=O)Nc1ccc(C(F)(F)F)c(C)c1
System name: Kv7.2/7.3 (KCNQ2/3) (Homo sapiens, UniProt O43525+O43526)
Label class: not fulfilled
--
Compound: CCCOc1nn(CCC)cc1C(=O)Nc1ccc(C(F)(F)F)c(Cl)c1
System name: Kv7.2/7.3 (KCNQ2/3) (Homo sapiens, UniProt O43525+O43526)
Label class: not fulfilled
--
Compound: CCCOc1nn(CCC)cc1C(=O)Nc1ccc(F)cc1F
System name: Kv7.2/7.3 (KCNQ2/3) (Homo sapiens, UniProt O43525+O43526)
Label class: not fulfilled
--
Compound: CCCOc1nn(CCC)cc1C(=O)Nc1ccc(F)c(Cl)c1
System name: Kv7.2/7.3 (KCNQ2/3) (Homo sapiens, UniProt O43525+O43526)
Label class: not fulfilled

---

Tested on: VU0463271-induced phenotype (KCC2 inhibition) in zebrafish larvae
Protocol notes: animal or person
Cond: concentration of peak effect; doses 2.5-320 uM; suppression of KCC2-inhibited phenotype in zebrafish

Compound: COc1cc(S(=O)(=O)NCCN2CCOCC2)c(OC)cc1C
Unit abbreviation: µM
Limit qualifier: =
peak activity: 160
--
Compound: COc1cc(C)c(C(C)C)cc1S(=O)(=O)NCC1CCCO1 (stereo not shown)
Unit abbreviation: µM
Limit qualifier: >
peak activity: 160
--
Compound: COc1cc(C)c(C(C)C)cc1S(=O)(=O)NCCN1CCOCC1
Unit abbreviation: µM
Limit qualifier: =
peak activity: 20
--
Compound: COc1cc(C)c(C)cc1S(=O)(=O)NCCN1CCOCC1
Unit abbreviation: µM
Limit qualifier: =
peak activity: 80
--
Compound: CCOc1ccc(Br)cc1S(=O)(=O)NCCN1CCOCC1
Unit abbreviation: µM
Limit qualifier: =
peak activity: 20
--
Compound: COc1ccc(C(C)C)cc1S(=O)(=O)NCCN1CCOCC1
Unit abbreviation: µM
Limit qualifier: =
peak activity: 20
--
Compound: COc1cc(C)c(Br)cc1S(=O)(=O)NCCN1CCOCC1
Unit abbreviation: µM
Limit qualifier: =
peak activity: 20

---

System name: Kv7.2/7.3 (KCNQ2/3) (Homo sapiens, UniProt O43525+O43526)
Construct: expressed in transfected cells; host or cells: CHO
Protocol notes: CHO-Kv7.2/7.3 (KCNQ2/3) 86Rb efflux assay
Format: cell-based
Cond: Table 7, first line of values; read-out: EC50 (μM, raw)

Compound string: CCCOc1nn(CCC)cc1C(=O)Nc1ccccc1
System name: Kv7.2/7.3 (KCNQ2/3) (Homo sapiens, UniProt O43525+O43526)
EC50: > 30 µM

Compound string: CCCOc1nn(CCC)cc1C(=O)Nc1ccc(F)c(Cl)c1
System name: Kv7.2/7.3 (KCNQ2/3) (Homo sapiens, UniProt O43525+O43526)
EC50: 0.48 µM

Compound string: CCCOc1nn(CCC)cc1C(=O)Nc1cc(F)ccc1F
System name: Kv7.2/7.3 (KCNQ2/3) (Homo sapiens, UniProt O43525+O43526)
EC50: > 30 µM
